Measured TGI by item
Tested on: SN12C renal
Assay: NCI tumour cell line growth inhibition, 48 h

[
  {
    "Molecule": "NS(=O)(=O)c1ccc(NC(=O)c2cc([N+](=O)[O-])cc([N+](=O)[O-])c2)cc1",
    "TGI": "90.7 µM"
  },
  {
    "Molecule": "CN(C)CCN1C(=O)CC[C@@]2(C)C1=CC[C@@H]1[C@@H]2CC[C@@]2(C)[C@H]1CC[C@]2(C)O",
    "TGI": "> 100 µM"
  },
  {
    "Molecule": "CC(=O)N1c2ccccc2C(C)(C)OC1C(Cl)(Cl)Cl (stereo unspecified)",
    "TGI": "> 100 µM"
  },
  {
    "Molecule": "Cc1cc(S(N)(=O)=O)c(SCc2nc(N)nc(N(C)C)n2)cc1Cl",
    "TGI": "> 10 µM"
  },
  {
    "Molecule": "COc1ccc(-c2cc(-c3ccc(Nc4nc(Nc5ccc(Cl)cc5)nc(Nc5ccc(Cl)cc5)n4)cc3)nc(N)c2C#N)cc1",
    "TGI": "> 100 µM"
  },
  {
    "Molecule": "CCCCOC(=O)C(=O)C(CC(C(=O)Cc1ccccc1)c1ccccc1)C(=O)C=C(C)C (stereo unspecified)",
    "TGI": "> 100 µM"
  },
  {
    "Molecule": "CSC(SC)=C1C(=O)NN=C1C",
    "TGI": "> 100 µM"
  },
  {
    "Molecule": "CC(=O)OC1/C(=C/c2ccc([N+](=O)[O-])cc2)C[C@H]2[C@@H]3CC=C4C[C@@H](OC(C)=O)CC[C@]4(C)[C@H]3CC[C@]12C (stereo partly specified)",
    "TGI": "> 100 µM"
  },
  {
    "Molecule": "C[C@H]1[C@H](OC(=O)CCC(=O)O)O[C@@H]2O[C@]3(C)CC[C@H]4[C@H](C)CC[C@@H]1[C@@]24OO3",
    "TGI": "> 48.9 µM"
  },
  {
    "Molecule": "Cc1cc2nc(N3C(=O)/C(=C/c4cccc([N+](=O)[O-])c4)N=C3c3ccccc3)sc2cc1C",
    "TGI": "> 100 µM"
  },
  {
    "Molecule": "C=C(c1ccccc1N)[C@@]1(O)C[C@H](/C(=C\\C)CO)C[C@@H]1NCc1ccccc1",
    "TGI": "> 100 µM"
  },
  {
    "Molecule": "S=c1[nH]nc(COc2ccc(Cl)cc2)o1",
    "TGI": "> 100 µM"
  },
  {
    "Molecule": "COC(=O)c1cnc(=O)n(C2CC(O)C(CO)O2)c1 (stereo unspecified)",
    "TGI": "> 100 µM"
  },
  {
    "Molecule": "CCOC(=O)c1c(O)[nH]c(=O)c(CC)c1C",
    "TGI": "> 100 µM"
  },
  {
    "Molecule": "CC(Cc1ccc(Cl)cc1Cl)NO (stereo unspecified)",
    "TGI": "> 100 µM"
  },
  {
    "Molecule": "CC(=O)Oc1c(C)n(CCCl)ccc1=O",
    "TGI": "> 100 µM"
  },
  {
    "Molecule": "Nc1nc(Cl)c(C=O)c(NCC2(CO)CC(CCc3ccccc3)C2)n1 (stereo unspecified)",
    "TGI": "19 µM"
  },
  {
    "Molecule": "C[C@@H](c1ccc2nccn2c1)n1nnc2ncc(-c3cnn(C)c3)nc21",
    "TGI": "> 100 µM"
  },
  {
    "Molecule": "O=C(c1ccccc1)c1nn(-c2ccc(Cl)cc2)c2nc3nc(-c4ccccc4)cc(=O)n3nc12",
    "TGI": "59.8 µM"
  },
  {
    "Molecule": "O=C1/C(=C\\c2ccc(Cl)cc2)CN(C(=S)Nc2ccccc2)C/C1=C\\c1ccc(Cl)cc1",
    "TGI": "1.89 µM"
  },
  {
    "Molecule": "O=C(O)C(Cc1ccc2c(c1)CCC2)(Cc1ccc2c(c1)CCC2)C(=O)O",
    "TGI": "> 100 µM"
  }
]
